# Test name: chemical genetic growth profiling, strain panel (AID 1159580);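 further: tested at 20 µM; growth read once vehicle control cultures reached saturation at 30 °C; 1 = growth at the plate median or of vehicle wells; lower values mean less growth of the strain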
# Measurement setup: S. cerevisiae deletion strains, growth OD, locus YKL085W, strain MDH1, active compounds read low
Hit rate of the full screen: of about 5,500 compounds, about 2,000 (36%) were called active. Roughly 18% stayed inconclusive and do not appear here. The list shows a part of the results.
Parameter: normalized growth
The response must contain the number and no unit.

Q) Could you share which normalized growth value was measured for CCCn1c(=O)c2[nH]c(C3CCCC3)nc2n(CCC)c1=O ?
A) 0.994

Q) Could you share which normalized growth value was measured for CN(C)C(=O)Oc1ccc[n+](C)c1 ?
A) 1.01

Q) Could you share which normalized growth value was measured for NC1(C(=O)O)CCCC1 ?
A) 0.996

Q) Could you share which normalized growth value was measured for COc1ccc2oc3ccccc3c(=O)c2c1 ?
A) 0.914

Q) Could you share which normalized growth value was measured for O=C1CCCN1CC#CCN1CCCC1 ?
A) 1.02

Q) Could you share which normalized growth value was measured for NCCCCCC(=O)O ?
A) 1.01

Q) Could you share which normalized growth value was measured for O=NN(CCCl)C(=O)NCCCl ?
A) 0.994

Q) Could you share which normalized growth value was measured for NCCCCNCCCN ?
A) 0.985

Q) Could you share which normalized growth value was measured for C[C@]12CCC3c4ccc(O)cc4CCC3C1CCC2=O (stereo partly drawn) ?
A) 1.02

Q) Could you share which normalized growth value was measured for NCC[C@@H](O)C(=O)N[C@@H]1C[C@H](N)[C@@H](O[C@H]2O[C@H](CN)[C@@H](O)[C@H](O)[C@H]2O)[C@H](O)[C@H]1O[C@H]1O[C@H](CO)[C@@H](O)[C@H](N)C1O (stereo partly drawn) ?
A) 1.01

Q) Could you share which normalized growth value was measured for Cc1cc(/C=C/c2ccc3cc(N(C)C)ccc3[n+]2C)c(C)n1-c1ccccc1 ?
A) 1.03

Q) Could you share which normalized growth value was measured for CC(=O)Oc1ccc2c(c1)CCC1C2CC[C@]2(C)C(=O)CCC12 (stereo partly drawn) ?
A) 1

Q) Could you share which normalized growth value was measured for C[C@]12CCC3c4ccc(OC(=O)c5ccccc5)cc4CCC3C1CCC2=O (stereo partly drawn) ?
A) 1.01

Q) Could you share which normalized growth value was measured for O=c1oc2ccccc2cc1O ?
A) 0.99

Q) Could you share which normalized growth value was measured for Cc1oncc1C(=O)Nc1ccc(C(F)(F)F)cc1 ?
A) 0.999

Q) Could you share which normalized growth value was measured for O=c1[nH]c(=O)n(C2C[C@H](O)[C@@H](CO)O2)cc1C(F)(F)F (stereo partly drawn) ?
A) 0.974

Q) Could you share which normalized growth value was measured for COc1ccc2oc(-c3ccccc3)c(OC)c(=O)c2c1 ?
A) 0.945

Q) Could you share which normalized growth value was measured for CN=C(N)NCCCC(N)C(=O)O (stereo not drawn) ?
A) 1.03

Q) Could you share which normalized growth value was measured for COc1ccc2c(=O)c(OC)c(-c3ccccc3)oc2c1 ?
A) 0.974

Q) Could you share which normalized growth value was measured for CCC(=O)OC1[C@@H]2CC3=C4CC(=O)O[C@@H](c5ccoc5)[C@]4(C)CCC3[C@@](C)(C2=O)[C@@H](CC(=O)OC)C1(C)C (stereo partly drawn) ?
A) 1

Q) Could you share which normalized growth value was measured for CC12CCC3C(=CCc4cc(O)ccc43)C1CCC2=O (stereo not drawn) ?
A) 0.98

Q) Could you share which normalized growth value was measured for CC1CCC(NC(=O)N(CCCl)N=O)CC1 (stereo not drawn) ?
A) 0.912

Q) Could you share which normalized growth value was measured for COP(=S)(OC)Oc1ccc([N+](=O)[O-])cc1 ?
A) 0.978

Q) Could you share which normalized growth value was measured for NCCCC(=O)O ?
A) 1

Q) Could you share which normalized growth value was measured for FC(F)(F)c1cccc(N2CCNCC2)c1 ?
A) 0.995

Q) Could you share which normalized growth value was measured for O=C(O)C1CCCNC1 (stereo not drawn) ?
A) 1.01

Q) Could you share which normalized growth value was measured for NCCCCC(=O)O ?
A) 1.04

Q) Could you share which normalized growth value was measured for Clc1ccc(C(c2ccccc2Cl)C(Cl)Cl)cc1 (stereo not drawn) ?
A) 0.989
